These measurements were taken from the nanobody polyreactivity screen of Harvey et al. (2022).

assay: yeast display, Sf9 membrane polyspecificity reagent, FACS + sequencing; frameworks hold sequencing errors
recorded-metric: polyreactivity (PSR sort gate)

Examples from the recorded data:
- input-sequence: "QVQLVESGGGLVQAGGSLRLTCAASGGILGYYAMGWYRQEQGKERELVAAISSSVGRTYYADSVKGRFTISRDNAKNSVFLQMNSLKPEDTAVYYCNKDIGRSYNYWGQGTQVTVSS"
  result: "high polyreactivity"
- input-sequence: "QVQLVESGGGLVQAGGSLRLICAGSGSTFPTYAMGWYRQAPGKERELVAAITSGSGTNTYYADSVKGRFTISRDNAKNTVYLQMNSLKPEDTAVYYCAASGGKNGMNYWGQGTQVTVSS"
  result: "high polyreactivity"
- input-sequence: "QVQLVESGGGLVQAGGSLRLSCAASGRTYGNYAMGWSRPAPGKERELVAGITYRSGRTYYADSVKGRFTISRDNAKITFYLQMNSLKPEDTAVYYCAAASYYLTPKHDYWGQGTQVTVSW"
  result: "high polyreactivity"
- input-sequence: "QVQLVETGGGLVQAGGSLRLSCAASGATFNANGMGWYRQAPGKERELVAAISQRAGRTYYADSVKGRFTISRDNAKNTVYLQMNSLKPEDTAVYYCAARYLGGYYFRYYYWGQGTQVTVSS"
  result: "high polyreactivity"
- input-sequence: "QVQLVESGGGLVQAGGSLRLSCAASGSTFYLYTMGWYRLAPGKERELVAAISVSGGSTFYADSVKGRFSISRDNAKNTVYLQKNSLKPEDTAVYYSAADGYLHAGHWRTYGYYYWGQGTQVTVSS"
  result: "low polyreactivity"
- input-sequence: "QVQLVESGGGLVQAGGSLRLSCAASGSIFDPYAMGWYRQAPGKETELDAAITASGSSTYYADSVKGRFTISRDNAKNTVYLQMNSLKPEDTAVYYCAADRANWEYLLSWLGYDYWGQGTQVTVSS"
  result: "low polyreactivity"

Attention now turns to another entry.
Incoming: Please list polyreactivity (PSR sort gate) recorded for the sequence `QVQLVESGGGLVQAGGSLRLSCAASGFTFSYYAMGWYRQAPGKERELVAAISFGGSTYYADSVKGRFTISRDNAKNTVYLQMNSLKPEDTAVYYCAVYGDSYWGAYYYSDGYWGQGTQVTVSS`
Outgoing: low polyreactivity
